target: Prostaglandin G/H synthase 1 (Ovis aries, UniProt P05979); assay: Inhibition of ovine COX1 assessed as reduction in Prostaglandin production by enzyme immunoassay
Sequence (P05979 whole entry): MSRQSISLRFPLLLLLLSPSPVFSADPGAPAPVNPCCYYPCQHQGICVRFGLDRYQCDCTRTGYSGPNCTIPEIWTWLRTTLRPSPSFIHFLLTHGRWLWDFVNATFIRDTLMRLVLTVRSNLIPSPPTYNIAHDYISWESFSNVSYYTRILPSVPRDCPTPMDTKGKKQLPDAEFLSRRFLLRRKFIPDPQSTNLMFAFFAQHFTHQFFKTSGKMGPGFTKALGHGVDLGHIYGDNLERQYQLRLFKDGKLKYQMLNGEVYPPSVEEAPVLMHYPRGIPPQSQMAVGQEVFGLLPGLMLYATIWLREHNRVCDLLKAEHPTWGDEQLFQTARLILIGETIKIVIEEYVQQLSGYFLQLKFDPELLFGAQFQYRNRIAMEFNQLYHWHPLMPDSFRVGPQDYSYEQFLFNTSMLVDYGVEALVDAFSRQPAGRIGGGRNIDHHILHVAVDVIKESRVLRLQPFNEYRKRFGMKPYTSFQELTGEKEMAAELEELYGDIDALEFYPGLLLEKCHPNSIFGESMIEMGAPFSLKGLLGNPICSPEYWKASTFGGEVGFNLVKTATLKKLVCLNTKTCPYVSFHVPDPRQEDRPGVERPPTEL
As shown below, each of these molecules has a reported IC50 value.
State just the number; it will be interpreted in µM.

Example cases with answers are listed next.
[[record]]
molecule_smiles = "COc1ccc(-c2nc3cc(NC(=O)c4ccccc4Br)ccc3o2)cc1OC"
reported_measurement = 10.1

[[record]]
molecule_smiles = "COc1ccc(-c2nc3cc(NC(=O)c4cccc([N+](=O)[O-])c4)ccc3o2)cc1OC"
reported_measurement = 5.52

[[record]]
molecule_smiles = "COc1ccc(-c2nc3cc(NC(=O)c4ccccc4Cl)ccc3o2)cc1OC"
reported_measurement = 1.02


Report IC50, nothing else, for this molecule: COc1ccc(-c2nc3cc(NC(=O)c4cc([N+](=O)[O-])ccc4Cl)ccc3o2)cc1OC
10.2

Note down IC50 recorded for COc1ccc(-c2nc3cc(NC(=O)c4cccc(C)c4)ccc3o2)cc1OC
5.21

Answer with reported IC50 of COc1cc(OC)cc(C(=O)Nc2ccc3oc(-c4ccc(OC)c(OC)c4)nc3c2)c1
6.02

###

Quick reference: UI of the listed items.
test system: Rattus norvegicus; test: Ulcerogenicity in Wistar albino rat assessed as severity index at 60 mg/kg, po measured after 6 hrs; format: toxicity, organism-based; settings: in vivo
Answer field: number only, no words.

Reference set, count: 2
[[record]]
compound = "CC(C)Cc1ccc(C(C)C(=O)O)cc1 (stereo not drawn)"
reported_measurement = 2.2

[[record]]
compound = "COc1ccc(-c2nc3cc(NC(=O)c4ccc([N+](=O)[O-])cc4Cl)ccc3o2)cc1OC"
reported_measurement = 1


Query compound follows.
Name the recorded UI of the compound listed here: COc1ccc(-c2nc3cc(NC(=O)c4ccc([N+](=O)[O-])cc4)ccc3o2)cc1OC
1.8
